Known current change vs dofetilide control, less the hit threshold of a selection of molecules
ASSAYED_SYSTEM: Voltage-gated inwardly rectifying potassium channel KCNH2 (Homo sapiens)
MEASUREMENT_DESCRIPTION: hERG tail current rescue from dofetilide, cell-based, Ionworks automated patch clamp, CHO-hERG, secondary (AID 2103)
SETTINGS: dofetilide IC70, at 10 µM, hits give high values
Your answer is read as %, so omit the unit and give the number.

(Q) Using the record for CCOC(=O)C1CCN(S(=O)(=O)c2cccc3nonc23)CC1 , report its current change vs dofetilide control, less the hit threshold.
(A) -37.7

====

ASSAYED_SYSTEM: Voltage-gated inwardly rectifying potassium channel KCNH2 (Homo sapiens) (UniProt Q12809)
Sequence (Q12809 whole entry, looked up): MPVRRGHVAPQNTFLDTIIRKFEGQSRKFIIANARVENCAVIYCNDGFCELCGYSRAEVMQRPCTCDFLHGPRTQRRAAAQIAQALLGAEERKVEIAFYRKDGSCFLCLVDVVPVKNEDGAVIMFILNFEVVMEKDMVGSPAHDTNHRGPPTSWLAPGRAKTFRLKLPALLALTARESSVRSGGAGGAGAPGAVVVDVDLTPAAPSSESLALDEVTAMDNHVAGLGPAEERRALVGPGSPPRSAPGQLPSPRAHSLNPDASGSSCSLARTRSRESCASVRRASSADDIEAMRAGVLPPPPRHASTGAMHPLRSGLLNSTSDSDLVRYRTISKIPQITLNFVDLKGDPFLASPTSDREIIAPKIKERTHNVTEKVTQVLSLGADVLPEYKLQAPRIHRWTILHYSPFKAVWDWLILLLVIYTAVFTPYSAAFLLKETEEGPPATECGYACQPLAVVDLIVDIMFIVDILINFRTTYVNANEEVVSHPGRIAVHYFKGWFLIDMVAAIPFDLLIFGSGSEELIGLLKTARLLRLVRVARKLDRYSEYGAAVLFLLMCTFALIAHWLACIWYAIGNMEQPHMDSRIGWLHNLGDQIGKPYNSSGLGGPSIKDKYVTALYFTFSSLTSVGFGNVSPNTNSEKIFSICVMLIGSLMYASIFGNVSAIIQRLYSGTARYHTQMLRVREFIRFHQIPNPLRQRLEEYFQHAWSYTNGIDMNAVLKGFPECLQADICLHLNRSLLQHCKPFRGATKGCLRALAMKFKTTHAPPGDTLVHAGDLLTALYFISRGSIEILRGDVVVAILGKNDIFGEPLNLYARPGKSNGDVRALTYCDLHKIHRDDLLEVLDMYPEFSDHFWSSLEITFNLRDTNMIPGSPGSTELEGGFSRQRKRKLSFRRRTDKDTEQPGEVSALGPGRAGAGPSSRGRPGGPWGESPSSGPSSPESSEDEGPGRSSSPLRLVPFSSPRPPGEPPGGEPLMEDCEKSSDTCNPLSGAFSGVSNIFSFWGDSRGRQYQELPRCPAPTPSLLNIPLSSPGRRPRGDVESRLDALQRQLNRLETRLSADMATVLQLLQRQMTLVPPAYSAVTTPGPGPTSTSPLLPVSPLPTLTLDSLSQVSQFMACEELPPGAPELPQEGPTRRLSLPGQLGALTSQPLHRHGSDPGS
MEASUREMENT_DESCRIPTION: hERG tail current rescue from dofetilide, cell-based, Ionworks automated patch clamp, CHO-hERG, secondary (AID 2103)
SETTINGS: dofetilide IC70, at 10 µM, hits give high values
OBSERVATION_TYPE: current change vs dofetilide control, less the hit threshold (%)
Your answer is read as %, so omit the unit and give the number.

Illustrative cases are given below, each with its answer.
{"MOLECULE": "CC1CN(S(=O)(=O)c2ccc(-c3nc4ccccc4s3)cc2)CC(C)O1 (stereo not drawn)", "VALUE_UNITS": "%", "NUMBER": -45}
{"MOLECULE": "CCc1ccc(C(C)NC(=O)C2CCCC2)cc1 (stereo not drawn)", "VALUE_UNITS": "%", "NUMBER": -41.5}

(Q) Using the record for CCOC(=O)N1CCN(C(=O)c2ccc(CN(c3ccc(C)c(C)c3)S(C)(=O)=O)cc2)CC1 , report its current change vs dofetilide control, less the hit threshold.
(A) -30.1

(Q) Using the record for COc1ccc(C(=O)Nc2ccccc2C(=O)O)cc1Cl , report its current change vs dofetilide control, less the hit threshold.
(A) -54.3

(Q) Using the record for CN(C(=O)c1ccc(Cl)c(S(=O)(=O)N2CCOCC2)c1)c1ccccc1C(=O)O , report its current change vs dofetilide control, less the hit threshold.
(A) -64.9

(Q) Using the record for Cc1ccc(C(=O)Nc2nc3ccccc3c(=O)s2)cc1 , report its current change vs dofetilide control, less the hit threshold.
(A) -52.6

(Q) Using the record for Cc1ccc(C(C#N)c2ccc3c(C(F)(F)F)cc(C(F)(F)F)nc3n2)cc1 (stereo not drawn) , report its current change vs dofetilide control, less the hit threshold.
(A) -59.8

====

ASSAYED_SYSTEM: Voltage-gated inwardly rectifying potassium channel KCNH2 (Homo sapiens)
MEASUREMENT_DESCRIPTION: hERG tail current rescue from dofetilide, cell-based, Ionworks automated patch clamp, CHO-hERG, secondary (AID 2103)
SETTINGS: dofetilide IC70, at 10 µM, hits give high values
Known current change vs dofetilide control, less the hit threshold of a selection of compounds
Your answer is read as %, so omit the unit and give the number.

Illustrative cases are given below, each with its answer.
{"SMILES_STR": "COC(=O)c1c(NS(=O)(=O)c2ccc3ccccc3c2)sc2c1CCCC2", "VALUE_UNITS": "%", "NUMBER": -46.2}
{"SMILES_STR": "N#Cc1c(NC(=O)c2cc(-n3cnnc3)ccc2Cl)sc2c1CCCC2", "VALUE_UNITS": "%", "NUMBER": -43.1}
{"SMILES_STR": "Fc1ccc2nc(Nc3nc4c(F)cc(F)cc4s3)sc2c1", "VALUE_UNITS": "%", "NUMBER": -49}
{"SMILES_STR": "CCOC(=O)N1CCN(C(=O)c2ccc(Cl)c(S(=O)(=O)Nc3ccccc3)c2)CC1", "VALUE_UNITS": "%", "NUMBER": -58.5}
{"SMILES_STR": "Cc1nonc1CN(C)C(=O)c1ccc(OC2CCN(Cc3ccccn3)CC2)cc1", "VALUE_UNITS": "%", "NUMBER": -69.9}
{"SMILES_STR": "Cc1nc2ccccc2n1-c1ccccc1", "VALUE_UNITS": "%", "NUMBER": -51.1}
{"SMILES_STR": "Cc1ccc(Cn2nnc3c(=O)n(CC(=O)N4CCCc5ccccc54)cnc32)cc1", "VALUE_UNITS": "%", "NUMBER": -41.2}
{"SMILES_STR": "O=C(O)c1ccc(Cl)cc1Nc1nc2cc(Cl)ccc2o1", "VALUE_UNITS": "%", "NUMBER": -48.7}

Now for the compound whose current change vs dofetilide control, less the hit threshold we want.
(Q) Using the record for Cc1ccc(C)c2sc(NC(=O)c3nc4ccccc4s3)nc12 , report its current change vs dofetilide control, less the hit threshold.
(A) -46.9

====

Known current change vs dofetilide control, less the hit threshold of a selection of compounds
ASSAYED_SYSTEM: Voltage-gated inwardly rectifying potassium channel KCNH2 (Homo sapiens)
MEASUREMENT_DESCRIPTION: hERG tail current rescue from dofetilide, cell-based, Ionworks automated patch clamp, CHO-hERG, secondary (AID 2103)
SETTINGS: dofetilide IC70, at 10 µM, hits give high values
Your answer is read as %, so omit the unit and give the number.

Illustrative cases are given below, each with its answer.
{"SMILES_STR": "CC(=O)c1c(C)c2c(n1CCN(C)C)CCCC2", "NUMBER": -56.2}
{"SMILES_STR": "CN(Cc1ccccc1)C(=O)CCc1ccccc1", "NUMBER": -53.5}
{"SMILES_STR": "COC(=O)c1ccc(CSc2ncnc3sc(C)c(C)c23)o1", "NUMBER": -48.9}

(Q) Using the record for CCCN(C(=O)c1ccco1)c1nnc(-c2ccncc2)s1 , report its current change vs dofetilide control, less the hit threshold.
(A) -29.1

(Q) Using the record for CC(C)Oc1c(Cl)cc(CNC(C)(C)CO)cc1Cl , report its current change vs dofetilide control, less the hit threshold.
(A) -52.1

(Q) Using the record for CCOC(=O)Cc1nc2ccccc2o1 , report its current change vs dofetilide control, less the hit threshold.
(A) -49.3

(Q) Using the record for Clc1cccc(OCCCN2CCCC2)c1Cl , report its current change vs dofetilide control, less the hit threshold.
(A) -77.4
